- Test system: Trichophyton tonsurans
- protocol.notes: Antimicrobial activity against Trichophyton tonsurans EQ 4329 after 10 days by microdilution technique
- Type: functional
- experimental.setup: 240 h
I'd be grateful if you could share measured MIC for these entries.
Numbers only, in mg/L.

CC(=O)N1CCN(c2ccc(OCC3COC(Cn4ccnc4)(c4ccc(Cl)cc4Cl)O3)cc2)CC1 (centres undefined); 50

Could you now consider this next compound?
Problem: Report value: MIC, system: Trichophyton tonsurans, compound: O=C1[C@H](O)[C@]23C=CCN4CC=C5c6cc7c(cc6N1[C@@]5(CC2)[C@@H]43)OCO7
Solution: 3.9

----------
- System: Escherichia coli
- protocol.notes: Antimicrobial activity against Escherichia coli NCTC 9002 after 24 hrs by microdilution technique
- Assay type: functional
- experimental.setup: NCTC 9002, 24 h
I'd be grateful if you could share measured MIC for these entries.
Give bare numbers, in mg/L.

O=C1[C@H](O)[C@]23C=CCN4CC=C5c6cc7c(cc6N1[C@@]5(CC2)[C@@H]43)OCO7; 250

Problem: Report value: MIC, system: Escherichia coli, molecule: CC1(C)S[C@@H]2[C@H](NC(=O)[C@H](N)c3ccccc3)C(=O)N2[C@H]1C(=O)O
Solution: 20

----------
I'd be grateful if you could share measured MIC for these entries.
- Test system: Cladosporium cladosporioides
- protocol.notes: Antimicrobial activity against Cladosporium cladosporioides IMI 299104 after 10 days by microdilution technique
- Assay type: functional
- experimental.setup: 240 h
Numbers only, in µg/mL.

CC(=O)N1CCN(c2ccc(OCC3COC(Cn4ccnc4)(c4ccc(Cl)cc4Cl)O3)cc2)CC1 (centres undefined) [KETOCONAZOLE]; 25

Problem: Please look at this molecule and report its MIC: O=C1[C@H](O)[C@]23C=CCN4CC=C5c6cc7c(cc6N1[C@@]5(CC2)[C@@H]43)OCO7
Solution: 7.8

----------
- Tested on: Candida albicans
- protocol.notes: Antimicrobial activity against Candida albicans after 24 hrs by microdilution technique
- Assay type: functional
observation.type: MIC (µg/mL)
Numbers only, in µg/mL.

CC(=O)N1CCN(c2ccc(OCC3COC(Cn4ccnc4)(c4ccc(Cl)cc4Cl)O3)cc2)CC1 (centres undefined); 25

Could you now consider this next compound?
Problem: Please look at this compound and report its MIC: O=C1[C@H](O)[C@]23C=CCN4CC=C5c6cc7c(cc6N1[C@@]5(CC2)[C@@H]43)OCO7
Solution: 7.8

----------
- Test system: Staphylococcus aureus
- protocol.notes: Antimicrobial activity against Staphylococcus aureus NCIMB 9515 after 24 hrs by microdilution technique
- Format: functional
I'd be grateful if you could share measured MIC for these entries.
Give bare numbers, in µg/mL.

CC1(C)S[C@@H]2[C@H](NC(=O)[C@H](N)c3ccccc3)C(=O)N2[C@H]1C(=O)O; 12.5

Could you now consider this next compound?
Problem: Please look at this compound and report its MIC: COc1ccc2c(c1)N1C(=O)C[C@]34C=CCN5CC[C@@H]2[C@@H](CC3)[C@]514
Solution: 125

Where these numbers come from: ChEMBL document CHEMBL1148127
